test system: outbred mice; experiment: acetic acid induced writhing test (visceral pain model); format: in vivo; settings: 10 mg/kg, intragastric; (control − exp)/control · 100%
Marks after values point to notes of the source that are not given here.
PARAMETER MEASURED: Pain reduction, %

CC1CCC2C(C1)OC(c1ccc([N+](=O)[O-])s1)CC2(C)O (stereo not shown) [Compound 1f] :: 32* %
CC1CCC2C(C1)OC(c1cccs1)CC2(C)O (stereo not shown) [Compound 1a] :: 55%
O=C(O)Cc1ccccc1Nc1c(Cl)cccc1Cl [Sodium diclofenac, reference compound] :: 50*** %
CC1CCC2C(C1)OC(c1ccc(Br)s1)CC2(C)O (stereo not shown) [Compound 1e] :: 34* %

Prompt: Return reported Pain reduction, %. Input compound: Cc1ccc(C2CC(C)(O)C3CCC(C)CC3O2)s1 (stereo not shown) [Compound 1c]
Completion: 39*** %

Prompt: Return reported Pain reduction, %. Input compound: Cc1ccsc1C1CC(C)(O)C2CCC(C)CC2O1 (stereo not shown) [Compound 1b]
Completion: 36*** %

Prompt: Return reported Pain reduction, %. Input compound: CC1CCC2C(C1)OC(c1cc(Br)cs1)CC2(C)O (stereo not shown) [Compound 1d]
Completion: 63** %
